Test system: PPARg:RXRa 270nM:90nM, anti-RXR (NR concentration 270 nM, RXRa partner concentration 90 nM)
Experiment: PBM binding z-score (relative to random genomic background probes); higher = stronger binding; sequences stand for … in GC…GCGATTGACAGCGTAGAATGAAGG
Collected PBM binding z-score values appear next to each entry.

PBM binding z-score reading for `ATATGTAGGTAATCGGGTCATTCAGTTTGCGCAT` : 5.56

***
PBM binding z-score reading for `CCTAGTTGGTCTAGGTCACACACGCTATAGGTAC` : 1.53

PBM binding z-score reading for `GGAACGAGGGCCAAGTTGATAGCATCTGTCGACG` : 1.4

PBM binding z-score reading for `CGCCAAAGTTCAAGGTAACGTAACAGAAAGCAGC` : 4.83

PBM binding z-score reading for `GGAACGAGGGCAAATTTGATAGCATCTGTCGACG` : 1.13

PBM binding z-score reading for `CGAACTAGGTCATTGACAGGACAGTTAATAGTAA` : 6.51

These data points were gathered from the supplement of paper PMC6555819.
